System: rat erythrocytes
assay.info: Hemolysis assay
Format: cell-based
// boundary case: Hmax (100 µM) equal to 80% maps to Not satisfied; strictly smaller maps to Satisfied

C[C@@H](c1ccccc1)N(CC(N)=O)C(=O)CN(C(=O)CN(CCCCN)C(=O)CN(CCc1c[nH]c2ccccc12)C(=O)CN(CCc1c[nH]c2ccccc12)C(=O)CN(CCCCN)C(=O)CN(CCc1c[nH]c2ccccc12)C(=O)CN(CCc1c[nH]c2ccccc12)C(=O)CN(CCCCN)C(=O)CN(C(=O)CN(C(=O)CNCCCCN)[C@@H](C)c1ccccc1)[C@@H](C)c1ccccc1)[C@@H](C)c1ccccc1
Not satisfied
C[C@@H](c1ccccc1)N(CC(N)=O)C(=O)CN(CCCCN)C(=O)CN(CCCCN)C(=O)CN(C(=O)CN(C(=O)CN(CCCCN)C(=O)CN(C(=O)CN(C(=O)CN(CCCCN)C(=O)CN(Cc1ccccc1)C(=O)CN(Cc1ccccc1)C(=O)CNCCCCN)[C@@H](C)c1ccccc1)[C@@H](C)c1ccccc1)[C@@H](C)c1ccccc1)[C@@H](C)c1ccccc1
Satisfied
C[C@@H](c1ccccc1)N(CC(N)=O)C(=O)CN(C(=O)CN(CCCCN)C(=O)CN(C(=O)CN(C(=O)CN(CCCCN)C(=O)CN(CCc1c[nH]c2ccccc12)C(=O)CN(CCCCN)C(=O)CN(CCCCN)C(=O)CN(C(=O)CN(C(=O)CNCCCCN)[C@@H](C)c1ccccc1)[C@@H](C)c1ccccc1)[C@@H](C)c1ccccc1)[C@@H](C)c1ccccc1)[C@@H](C)c1ccccc1
Satisfied
C[C@@H](c1ccccc1)N(CC(N)=O)C(=O)CN(C(=O)CN(CCCCN)C(=O)CN(C(=O)CN(CCCCN)C(=O)CN(CCCCN)C(=O)CN(C(=O)CN(C(=O)CN(CCCCN)C(=O)CN(C(=O)CN(C(=O)CN(CCCCN)C(=O)CN(CCc1c[nH]c2ccccc12)C(=O)CNCCc1c[nH]c2ccccc12)[C@@H](C)c1ccccc1)[C@@H](C)c1ccccc1)[C@@H](C)c1ccccc1)[C@@H](C)c1ccccc1)[C@@H](C)c1ccccc1)[C@@H](C)c1ccccc1
Not satisfied

Continue with the next molecule.
Quick check: does "C[C@@H](c1ccccc1)N(CC(N)=O)C(=O)CN(C(=O)CN(CCCCN)C(=O)CN(C(=O)CN(C(=O)CN(CCCCN)C(=O)CN(CCc1c[nH]c2ccccc12)C(=O)CN(CCc1c[nH]c2ccccc12)C(=O)CN(CCCCN)C(=O)CN(CCc1c[nH]c2ccccc12)C(=O)CN(CCc1c[nH]c2ccccc12)C(=O)CNCCCCN)[C@@H](C)c1ccccc1)[C@@H](C)c1ccccc1)[C@@H](C)c1ccccc1" have Hmax (100 µM) under 80%? Not satisfied

###

Tested on: E. coli ATCC 25922
Type: cell-based, Escherichia coli
measurement.context: Table S3, counter-ion exchange series (TFA, HCl, AcOH salts); mean of triplicate
Square brackets hold non-standard residues; d marks the D form. Peptide text beside a SMILES is read from it. Gly(N(CH2)2(3-indolyl)) = O=C(O)CNCCc1c[nH]c2ccccc12; Nspe = C[C@H](NCC(=O)O)c1ccccc1; Nlys = NCCCCNCC(=O)O
readout.label: MIC E. coli ATCC25922 (µM)
API: value field is a number in µM; no unit string.

Example entries and their recorded answers appear below.
C[C@@H](c1ccccc1)N(CC(N)=O)C(=O)CN(C(=O)CN(CCCCN)C(=O)CN(C(=O)CN(C(=O)CN(CCCCN)C(=O)CN(C(=O)CN(C(=O)CN(CCCCN)C(=O)CN(C(=O)CN(C(=O)CNCCCCN)[C@@H](C)c1ccccc1)[C@@H](C)c1ccccc1)[C@@H](C)c1ccccc1)[C@@H](C)c1ccccc1)[C@@H](C)c1ccccc1)[C@@H](C)c1ccccc1)[C@@H](C)c1ccccc1 [peptoid 1, reference compound] (H-[Nlys][Nspe][Nspe][Nlys][Nspe][Nspe][Nlys][Nspe][Nspe][Nlys][Nspe][Nspe]-NH2)
6.3
C[C@@H](c1ccccc1)N(CC(N)=O)C(=O)CN(C(=O)CN(CCCCN)C(=O)CN(C(=O)CN(C(=O)CN(CCCCN)C(=O)CN(C(=O)CN(C(=O)CN(CCCCN)C(=O)CN(C(=O)CN(C(=O)CNCCCCN)[C@@H](C)c1ccccc1)[C@@H](C)c1ccccc1)[C@@H](C)c1ccccc1)[C@@H](C)c1ccccc1)[C@@H](C)c1ccccc1)[C@@H](C)c1ccccc1)[C@@H](C)c1ccccc1 [1-AcOH] (H-[Nlys][Nspe][Nspe][Nlys][Nspe][Nspe][Nlys][Nspe][Nspe][Nlys][Nspe][Nspe]-NH2)
12.5
C[C@@H](c1ccccc1)N(CC(=O)N(CCCCN)CC(=O)N(CCc1c[nH]c2ccccc12)CC(=O)N(CCc1c[nH]c2ccccc12)CC(N)=O)C(=O)CN(CCCCN)C(=O)CN(CCCCN)C(=O)CN(C(=O)CN(C(=O)CN(CCCCN)C(=O)CN(C(=O)CN(C(=O)CNCCCCN)[C@@H](C)c1ccccc1)[C@@H](C)c1ccccc1)[C@@H](C)c1ccccc1)[C@@H](C)c1ccccc1 [peptoid 29] (H-[Nlys][Nspe][Nspe][Nlys][Nspe][Nspe][Nlys][Nlys][Nspe][Nlys][Gly(N(CH2)2(3-indolyl))][Gly(N(CH2)2(3-indolyl))]-NH2)
6.3
C[C@@H](c1ccccc1)N(CC(N)=O)C(=O)CN(CCCCN)C(=O)CN(CCCCN)C(=O)CN(C(=O)CN(C(=O)CN(CCCCN)C(=O)CN(C(=O)CN(C(=O)CN(CCCCN)C(=O)CN(CCc1c[nH]c2ccccc12)C(=O)CN(CCc1c[nH]c2ccccc12)C(=O)CNCCCCN)[C@@H](C)c1ccccc1)[C@@H](C)c1ccccc1)[C@@H](C)c1ccccc1)[C@@H](C)c1ccccc1
6.3
C[C@@H](c1ccccc1)N(CC(N)=O)C(=O)CN(C(=O)CN(CCCCN)C(=O)CN(C(=O)CN(C(=O)CN(CCCCN)C(=O)CN(C(=O)CN(C(=O)CN(CCCCN)C(=O)CN(CCc1c[nH]c2ccccc12)C(=O)CN(CCc1c[nH]c2ccccc12)C(=O)CNCCCCN)[C@@H](C)c1ccccc1)[C@@H](C)c1ccccc1)[C@@H](C)c1ccccc1)[C@@H](C)c1ccccc1)[C@@H](C)c1ccccc1
3.1

Read the next record carefully.
Give the reported value of MIC E. coli ATCC25922 for this record: "C[C@@H](c1ccccc1)N(CC(N)=O)C(=O)CN(C(=O)CN(CCCCN)C(=O)CN(C(=O)CN(C(=O)CN(CCCCN)C(=O)CN(C(=O)CN(C(=O)CN(CCCCN)C(=O)CN(CCc1c[nH]c2ccccc12)C(=O)CN(C(=O)CNCCCCN)[C@@H](C)c1ccccc1)[C@@H](C)c1ccccc1)[C@@H](C)c1ccccc1)[C@@H](C)c1ccccc1)[C@@H](C)c1ccccc1)[C@@H](C)c1ccccc1" 3.1
